- Test system: A2780Cis cisplatin resistant ovarian cancer cells
- Test description: Trypan blue assay, A2780Cis
- Format: cell-based
Readout: IC50 (nM)
All answers are understood in nM, so give the number only.

Incoming: Specify IC50 for CC(=O)OC[C@H]1O[C@@H]([S-])[C@H](OC(C)=O)[C@@H](OC(C)=O)[C@@H]1OC(C)=O.CCP(CC)CC.[Au+] , system A2780Cis cisplatin resistant ovarian cancer cells.
Outgoing: 710

====

- Tested on: A2780 ovarian cancer cells
- Test description: Trypan blue assay, A2780
- Assay type: cell-based
Readout: IC50 (nM)
Value expressed in nM; do not type the unit.

Incoming: Check the records and state IC50 for CC(=O)OC[C@H]1O[C@@H]([S-])[C@H](OC(C)=O)[C@@H](OC(C)=O)[C@@H]1OC(C)=O.CCP(CC)CC.[Au+]
Outgoing: 80

====

- Test system: HT-29 colon cancer cells
- Test description: Trypan blue assay, HT-29
- Format: cell-based
- Condition context: Trypan blue, 72 hours treatment; read-out: In vitro cytotoxicity IC50, HT-29
pIC50: −log10 of the molar value.
Readout: pIC50

Incoming: Identify measured pIC50 corresponding to N.N.[Cl][Pt][Cl] [Cisplatin]
Outgoing: < 4.60

====

- System: PC3 prostate cancer cells
- Test description: Trypan blue assay, PC3
- Assay type: cell-based
Readout: IC50 (nM)
# number only, unit nM dropped from output

Incoming: Report IC50, nothing else, for this compound: CC(=O)OC[C@H]1O[C@@H]([S-])[C@H](OC(C)=O)[C@@H](OC(C)=O)[C@@H]1OC(C)=O.CCP(CC)CC.[Au+] [auranofin]
Outgoing: 440
